Data credit: PubChem BioAssay

PROTOCOL_NOTES: growth suppression of beta-catenin knockout HCT116, pilot screen, human colon tumor cells (AID 823);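 further: 0% = wells killed by 20 µM Hyamine and 100% = untreated DMSO cell wells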
RECORDED_CONDITIONS: CellTiter-Glo, 60 h, at 10 µM, active compounds read low
Records with an inconclusive call do not appear.
OBSERVATION_TYPE: viability (%)
Number only, in %; omit the unit.

{"COMPOUND": "C=CCn1cc(C(=O)NCc2cccnc2)c(=O)c2cc(S(=O)(=O)N(CC)CC)ccc21", "UNIT_DESCRIPTOR": "%", "viability": 103}
{"COMPOUND": "COc1cccc(-n2nnc3c(=O)n(Cc4cccc(C)c4)cnc32)c1", "UNIT_DESCRIPTOR": "%", "viability": 104}
{"COMPOUND": "CC(C)OCCCNC(=O)c1cc2c(=O)n(C)c3ccccc3c2n1C", "UNIT_DESCRIPTOR": "%", "viability": 103}
{"COMPOUND": "Cc1oc(-c2cccs2)nc1CS(=O)CC(=O)NC1CCCCCC1 (stereo unspecified)", "UNIT_DESCRIPTOR": "%", "viability": 75.4}
{"COMPOUND": "COc1ccccc1NC(=O)C1=C(C)NC(=O)NC1c1ccccc1F (stereo unspecified)", "UNIT_DESCRIPTOR": "%", "viability": 99.2}
{"COMPOUND": "Cc1nc(CNS(=O)(=O)c2ccc3c(c2)CCCC3)cs1", "UNIT_DESCRIPTOR": "%", "viability": 96.7}
{"COMPOUND": "Nc1nnc(N2CCc3ccccc32)s1", "UNIT_DESCRIPTOR": "%", "viability": 105}
{"COMPOUND": "Cc1cccc(-n2ncc3c(Nc4ccc(F)cc4)ncnc32)c1", "UNIT_DESCRIPTOR": "%", "viability": 106}
{"COMPOUND": "COc1cccc(C2=NOC(C(=O)N3CCN(C(=O)c4ccco4)CC3)C2)c1 (stereo unspecified)", "UNIT_DESCRIPTOR": "%", "viability": 95.6}
{"COMPOUND": "NC(=O)C1CCN(C(=O)c2ccc(CS(=O)(=O)c3c(Cl)cccc3Cl)o2)CC1", "UNIT_DESCRIPTOR": "%", "viability": 109}

Turning to the following compound.
// viability lookup, key: "Cc1c(C(=O)NCc2cccnc2)sc2nc(-c3ccccc3)cn12" 101
